Test system: SW-620
protocol notes: Cytotoxicity against human SW620 cells after 3 days by MTT assay
Format: functional, cell-based
details: SW-620, 72 h
pIC50: −log10 of the molar value.
The entries below are paired with their reported pIC50.

{"compound": "CC1=Cc2nc(C)cc3cc(OCCN(C)C)cc(c23)O1", "target under test": "SW-620", "pIC50": 5.01}
{"compound": "CN(C)CCN1C(=O)c2cccc3cc(N)cc(c23)C1=O [AMONAFIDE]", "target under test": "SW-620", "pIC50": 6.49}

----------
System: WI-38
protocol notes: Cytotoxicity against human WI38 cells at 1 to 60 uM after 3 days by MTT assay
Format: cell-based
details: wi-38, 72 h

{"molecule": "CC1=Cc2nc(C)cc3cc(OCCOCCO)cc(c23)O1", "Activity": "Non-toxic"}
{"molecule": "CC1=Cc2nc(C)cc3cc(OCCN(C)C)cc(c23)O1", "Activity": "Non-toxic"}
{"molecule": "CN(C)CCN1C(=O)c2cccc3cc(N)cc(c23)C1=O [AMONAFIDE]", "Activity": "Toxic"}
{"molecule": "CC1=Cc2nc(C)cc3cc(O[Se]c4ccccc4)cc(c23)O1", "Activity": "Non-toxic"}

----------
The entries below are paired with their reported Tm.
Test system: Calf thymus DNA
protocol notes: Binding affinity to calf thymus DNA assessed as melting temperature at 30 uM by thermal denaturation assay
Type: nucleic-acid assay
details: Bos taurus

{"compound": "CC1=Cc2nc(C)cc3cc(OCCN(C)C)cc(c23)O1", "target under test": "Calf thymus DNA", "prefix operator": ">", "Tm / °C": 86}
{"compound": "CC1=Cc2nc(C)cc3cc(OCCOCCO)cc(c23)O1", "target under test": "Calf thymus DNA", "prefix operator": "=", "Tm / °C": 75.7}
{"compound": "CC1=Cc2nc(C)cc3cc(O[Se]c4ccccc4)cc(c23)O1", "target under test": "Calf thymus DNA", "prefix operator": "=", "Tm / °C": 70}
{"compound": "CN(C)CCN1C(=O)c2cccc3cc(N)cc(c23)C1=O [AMONAFIDE]", "target under test": "Calf thymus DNA", "prefix operator": "=", "Tm / °C": 78.9}
{"compound": "CC1=Cc2nc(C)cc3cc(O)cc(c23)O1 [CASSIARIN A]", "target under test": "Calf thymus DNA", "prefix operator": "=", "Tm / °C": 70.7}

----------
target under test: DNA topoisomerase 2-alpha (Homo sapiens) (UniProt P11388)
Sequence (P11388 whole entry): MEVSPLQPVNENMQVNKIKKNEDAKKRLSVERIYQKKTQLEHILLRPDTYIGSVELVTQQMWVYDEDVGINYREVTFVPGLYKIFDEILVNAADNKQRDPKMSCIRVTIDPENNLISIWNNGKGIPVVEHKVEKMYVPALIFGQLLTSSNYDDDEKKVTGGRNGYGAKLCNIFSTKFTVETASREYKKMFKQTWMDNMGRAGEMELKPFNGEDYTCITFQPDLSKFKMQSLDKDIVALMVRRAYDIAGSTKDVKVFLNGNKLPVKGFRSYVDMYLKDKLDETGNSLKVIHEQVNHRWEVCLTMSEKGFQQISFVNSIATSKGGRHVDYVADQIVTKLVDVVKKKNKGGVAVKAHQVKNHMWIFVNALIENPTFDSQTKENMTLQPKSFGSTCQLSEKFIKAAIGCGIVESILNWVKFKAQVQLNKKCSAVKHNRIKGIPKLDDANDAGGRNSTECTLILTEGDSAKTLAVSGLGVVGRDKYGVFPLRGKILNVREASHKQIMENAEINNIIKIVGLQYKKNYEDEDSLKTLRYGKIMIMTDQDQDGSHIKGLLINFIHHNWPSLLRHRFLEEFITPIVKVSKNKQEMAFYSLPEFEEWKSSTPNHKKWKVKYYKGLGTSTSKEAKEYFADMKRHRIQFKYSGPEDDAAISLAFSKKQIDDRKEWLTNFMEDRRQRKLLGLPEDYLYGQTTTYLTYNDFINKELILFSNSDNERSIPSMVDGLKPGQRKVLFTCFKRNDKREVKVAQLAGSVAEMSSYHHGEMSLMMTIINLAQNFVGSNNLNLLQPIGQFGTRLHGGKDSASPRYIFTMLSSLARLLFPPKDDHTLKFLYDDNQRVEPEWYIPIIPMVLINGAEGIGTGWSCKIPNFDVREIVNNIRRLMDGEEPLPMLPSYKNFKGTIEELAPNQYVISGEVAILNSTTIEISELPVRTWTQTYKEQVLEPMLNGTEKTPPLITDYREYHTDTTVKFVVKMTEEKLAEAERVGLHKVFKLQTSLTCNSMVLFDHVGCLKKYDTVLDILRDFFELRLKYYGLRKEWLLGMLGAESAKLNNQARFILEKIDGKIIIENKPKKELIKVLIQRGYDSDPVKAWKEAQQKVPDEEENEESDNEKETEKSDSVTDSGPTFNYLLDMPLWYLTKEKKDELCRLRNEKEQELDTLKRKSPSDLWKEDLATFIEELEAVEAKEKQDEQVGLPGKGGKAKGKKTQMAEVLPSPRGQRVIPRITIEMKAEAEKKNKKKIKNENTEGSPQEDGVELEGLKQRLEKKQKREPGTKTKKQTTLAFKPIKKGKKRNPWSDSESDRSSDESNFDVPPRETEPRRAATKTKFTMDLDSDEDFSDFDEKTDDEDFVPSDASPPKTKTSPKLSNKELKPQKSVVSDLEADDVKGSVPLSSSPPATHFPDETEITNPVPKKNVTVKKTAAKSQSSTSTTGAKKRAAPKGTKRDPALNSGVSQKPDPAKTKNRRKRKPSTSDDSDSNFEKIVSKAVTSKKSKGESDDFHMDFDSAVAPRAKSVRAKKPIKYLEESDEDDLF
protocol notes: Inhibition of human DNA topoisomerase-2-mediated decatenation of kinetoplast DNA at 100 uM after 1 hr by electrophoretic analysis relative to control

{"molecule": "CC1=Cc2nc(C)cc3cc(OCCN(C)C)cc(c23)O1", "inhibition": "30.1%"}
{"molecule": "CN(C)CCN1C(=O)c2cccc3cc(N)cc(c23)C1=O [AMONAFIDE]", "inhibition": "61.8%"}
{"molecule": "CC1=Cc2nc(C)cc3cc(O[Se]c4ccccc4)cc(c23)O1", "inhibition": "> 95%"}

----------
System: HepG2
protocol notes: Cytotoxicity against human HepG2 cells after 3 days by MTT assay
Assay type: functional, cell-based
details: HepG2, 72 h
The entries below are paired with their reported IC50.
property measured: IC50 (µM)

{"compound": "CN(C)CCN1C(=O)c2cccc3cc(N)cc(c23)C1=O [AMONAFIDE]", "result value": 1.71}
{"compound": "CC1=Cc2nc(C)cc3cc(OCCN(C)C)cc(c23)O1", "result value": 10.1}
{"compound": "CC1=Cc2nc(C)cc3cc(OCCOCCO)cc(c23)O1", "result value": 29.8}
